# System: OCI-AML2
# run_description: cell viability relative to vehicle control; higher = less cytotoxic;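 note: after 48 h exposure read by CellTiter-Glo luminescence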
# measurement_context: 10 µM; SRSF2 genotype: wt/wt
Structures can show the parent of a compound that is named as a salt.
// reported cell viability per item
The reply should be a number in %, with the unit left off.

The examples below pair each entry with its known result.
# compound, property_label, uom, obs_value
rows = [
    ("COc1ccc(CCc2nc3cc(-c4c(C)noc4C)ccc3n2C[C@H](C)N2CCOCC2)cc1Cl", "cell viability", "%", 60.6),
    ("Cc1ccc(C(=O)Nc2cccc(C(F)(F)F)c2)cc1Nc1nc(-c2cccnc2)nc2c1cnn2C", "cell viability", "%", 82.7),
    ("Cc1cnc(NC(=O)Nc2cc(Br)c(C)cc2OC[C@@H]2CNCCO2)cn1", "cell viability", "%", 12.1),
    ("Cn1cc(C(=O)[C@@H]2CCc3[nH]cnc3C2)c2ccccc21 [Ramosetron Hydrochloride]", "cell viability", "%", 89.9),
    ("CC(C)=CC(=O)O[C@H]1Cc2cc3ccc(=O)oc3cc2OC1(C)C [Decursin]", "cell viability", "%", 87),
]

get_value(item= CNC[C@H](O)[C@@H](O)[C@H](O)[C@H](O)CO.CNC[C@H](O)[C@@H](O)[C@H](O)[C@H](O)CO.O=C([O-])CN(CCN(CC(=O)[O-])CC(=O)O)CCN(CC(=O)[O-])CC(=O)O.[Gd+3] [Gadopentetate Dimeglumine] , readout=cell viability) returns 97.7

get_value(item= Cn1ccnc1S [Methimazole (Tapazole, Northyx)] , readout=cell viability) returns 100

get_value(item= O=C(O)CC(O)(CC(=O)OCc1ccc(O[C@@H]2O[C@H](CO)[C@@H](O)[C@H](O)[C@H]2O)cc1)C(=O)OCc1ccc(O[C@@H]2O[C@H](CO)[C@@H](O)[C@H](O)[C@H]2O)cc1 (stereo partly specified) [Parishin B] , readout=cell viability) returns 100

get_value(item= `Cc1cc(C)cc(C(=O)NOCCCCCC(=O)NO)c1` , readout=cell viability) returns 5.29

get_value(item= COc1cc(/C=C/C(=O)O)ccc1O [Fumalic acid (Ferulic acid)] , readout=cell viability) returns 105

get_value(item= Nc1ncnc2c1ncn2[C@@H]1O[C@H](COP(=O)(O)O)[C@@H](O)[C@H]1O [5'-Adenylic acid] , readout=cell viability) returns 93.9

get_value(item= CC1Cc2ccccc2N1NC(=O)c1ccc(Cl)c(S(N)(=O)=O)c1 (stereo unspecified) [Indapamide (Lozol)] , readout=cell viability) returns 104

get_value(item= CC1C(=O)OC2C(O)C34C5CC(C(C)(C)C)C36C(OC(=O)C6O)OC4(C(=O)O5)C12O (stereo unspecified) [Ginkgolide B] , readout=cell viability) returns 105

get_value(item= `Fc1ccc2[nH]ccc2c1-c1nc(N2CCOCC2)c2sc(CN3CCN(CC4CC4)CC3)cc2n1` , readout=cell viability) returns 34.5

get_value(item= `CCc1ccc(/C=C2/SC(=S)NC2=O)cc1` , readout=cell viability) returns 91.2

get_value(item= C#C[C@]1(O)CC[C@H]2[C@@H]3CCc4cc(OC5CCCC5)ccc4[C@H]3CC[C@@]21C [Quinestrol] , readout=cell viability) returns 60.6

----------
// reported cell viability per item
# Test system: MARIMO
# run_description: cell viability relative to vehicle control; higher = less cytotoxic
# measurement_context: 10 µM; SRSF2 genotype: SRSF2 P95H/wt
Structures can show the parent of a compound that is named as a salt.
The reply should be a number in %, with the unit left off.

# compound, cell viability, %
rows = [
    ("CCCCC(C)(O)C/C=C/[C@H]1[C@H](O)CC(=O)[C@@H]1CCCCCCC(=O)OC (mixture of isomers)", 82.6),
]

The value of cell viability recorded for CNCC[C@H](Oc1cccc2ccccc12)c1cccs1 [Duloxetine HCl (Cymbalta)] when tested on MARIMO reads 55

The value of cell viability recorded for `Cc1cn(-c2cc(NC(=O)c3ccc(C)c(Nc4nccc(-c5cnccn5)n4)c3)cc(C(F)(F)F)c2)cn1` when tested on MARIMO reads 107

The value of cell viability recorded for CCn1cc(C(=O)O)c(=O)c2cc(F)c(N3CCN(C)CC3)cc21 [Pefloxacin mesylate] when tested on MARIMO reads 105

Data credit: the supplement of paper PMC10981050
